Molecular target: T1, Peptide 8: Biotin-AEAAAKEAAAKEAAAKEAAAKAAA-Tyr-acid (N-terminal biotin; C-terminal acid)
T1 construct: control peptide without PC
T1 peptide: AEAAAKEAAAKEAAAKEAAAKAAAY
Assay: scFv ELISA
Procedure: For ELISA analysis of scFv binding, 96-well polystyrene plates were coated with Peptide 1, 4, 5, 8 or 100 μL BSA (10 μg/mL) in PBS at 4° C. overnight. […] All plates were washed three times with PBS-Tween before 40 μL aliquots of PPE were added to assay plates along with 50 μL 10% BSA, and plates were incubated for 1 hour at room temperature. […] The amount of scFv bound to each well was quantitated from absorbance measurement at 450 nm (OD450).
A collection of binders and their measured OD450
# output: bare number, implied unit OD450

QUERY: Determine its reported OD450: PcOxP_DB01_D05 (scFv, V domains shown, scFv in periplasmic extract) VH: EVQLLESGGGLVQPGGSLRLSCAASGFTFSDGYMEWVRQAPGKGLEWVAASRNKANDYTTEYADSVKGRFTISRDNSKNTLYLQMNSLRAEDTAVYYCARDYYGSPYWYFDVWGQGTLVTVSS VL: DIQMTQSPSSLSASVGDRVTITCTASESLYSSKHKVHYLAWYQQKPGKAPKLLIYGASNRYVGVPSRFSGSGSGTDFTLTISSLQPEDFATYYCAQFYSYPLTFGGGTKVEIK
RESULT: 0.05

QUERY: Item PcOxP_DB01_G12 (scFv, V domains shown, scFv in periplasmic extract) VH: EVQLLESGGGLVQPGGSLRLSCAASGFTFSDGYMEWVRQAPGKGLEWVAASRNKANDYTTEYADSVKGRFTISRDNSKNTLYLQMNSLRAEDTAVYYCARDYYGSSYWYFDVWGQGTLVTVSS VL: DIQMTQSPSSLSASVGDRVTITCTASESLYSSKHKVHYLAWYQQKPGKAPKLLIYGASNRYFGVPSRFSGSGSGTDFTLTISSLQPEDFATYYCAQFYSYPLTFGGGTKVEIK : provide OD450
RESULT: 0.06

QUERY: For the binder PcOxP_DB02_C09 (scFv, V domains shown, scFv in periplasmic extract) VH: EVQLLESGGGLVQPGGSLRLSCAASGFTFSDAYMEWVRQAPGKGLEWVAASRNKANDYTTEYADSVKGRFTISRDNSKNTLYLQMNSLRAEDTAVYYCARDYYGSSYWYFDVWGQGTLVTVSS VL: DIQMTQSPSSLSASVGDRVTITCTASESLYSSKHKVHYLAWYQQKPGKAPKLLIYGAGNRYIGVPSRFSGSGSGTDFTLTISSLQPEDFATYYCAQFYFYPLTFGGGTKVEIK , give its measured OD450 value.
RESULT: 0.04

QUERY: Kindly indicate its recorded OD450. Item: PcOxP_DB01_C05 (scFv, V domains shown, scFv in periplasmic extract) VH: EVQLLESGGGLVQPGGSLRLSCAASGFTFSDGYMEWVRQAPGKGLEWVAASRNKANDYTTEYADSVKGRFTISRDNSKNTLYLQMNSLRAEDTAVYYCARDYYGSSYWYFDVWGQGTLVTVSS VL: DIQMTQSPSSLSASVGDRVTITCTASESLYSSKHKVHYLAWYQQKPGKAPKLLIYGSSNRYIGVPSRFSGSGSGTDFTLTISSLQPEDFATYYCAQFYAYPLTFGGGTKVEIK
RESULT: 0.06

QUERY: Tell us which OD450 value is on record for PcOxP_DB03_A09 (scFv, V domains shown, scFv in periplasmic extract) VH: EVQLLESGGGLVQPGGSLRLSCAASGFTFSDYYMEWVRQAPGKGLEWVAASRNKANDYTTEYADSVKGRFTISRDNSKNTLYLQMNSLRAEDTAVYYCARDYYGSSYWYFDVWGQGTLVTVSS VL: DIQMTQSPSSLSASVGDRVTITCTASESLYSSKHKVHYLAWYQQKPGKAPKLLIYGASNRGIGVPSRFSGSGSGTDFTLTISSLQPEDFATYYCAQFYSYPLTFGGGTKVEIK
RESULT: 0.05
